Biological target: Carbonic anhydrase 1 (Homo sapiens, UniProt P00915)
Sequence (P00915 whole entry): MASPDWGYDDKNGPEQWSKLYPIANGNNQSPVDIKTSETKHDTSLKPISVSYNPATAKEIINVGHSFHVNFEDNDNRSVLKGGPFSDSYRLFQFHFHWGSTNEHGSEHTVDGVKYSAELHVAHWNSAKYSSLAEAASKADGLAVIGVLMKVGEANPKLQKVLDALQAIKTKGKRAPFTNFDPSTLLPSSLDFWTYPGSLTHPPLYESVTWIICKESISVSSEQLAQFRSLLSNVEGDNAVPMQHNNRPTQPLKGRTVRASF
Assay: Inhibition constant of anion against human carbonic anhydrase isozyme hCA I
Quantity: Ki (µM)
Answers are plain numbers, in µM.

Query :: // query Ki value for entry NC(=O)OP(=O)([O-])[O-].[Na+].[Na+] [CARBAMOYL PHOSPHATE; DI SODIUM]
Result :: 9.4

---

A short record of Ki observed with Carbonic anhydrase 9 (Homo sapiens, UniProt Q16790) follows.
One number for each entry, in µM.

See these solved cases before continuing.
O=C([O-])P(=O)([O-])[O-].[Na+].[Na+].[Na+] [FOSCARNET SODIUM] : 2210
NC(=O)OP(=O)([O-])[O-].[Na+].[Na+] [CARBAMOYL PHOSPHATE; DI SODIUM] : 3060

For every item below, please supply its Ki.
1. O=C([O-])O.[Na+] [SODIUM BICARBONATE]
2. O=C[O-].[Na+] [SODIUM FORMATE]

Result ::
13000
1220
